This listing pairs compounds with measured growth inhibition.
assay_notes: NCI Yeast Anticancer Drug Screen. Data for the mec2-1 strain (AID 157)
assay_setup: S. cerevisiae mec2-1 strain, at 50.0 µM, hits give high values
This is part of a sample that, as a whole, favours compounds with a hit. Of some 79,000 tested, about 15% had one in any assay. Activity calls are given as the source filed them. Cut-off read from the data, not from the text of the source: active = growth inhibition above about 70%; inactive = the rest.

-- ask Recorded growth inhibition of Cc1nc2ccc(Br)cc2c(=O)n1-c1nnc(C(C)(C)C)s1 , please.
-- reply -40.4% (inactive)

-- ask Another compound to check: O=C(Nc1cccc(Cl)c1Cl)C(Cl)(Cl)Cl
-- reply 20.9% (inactive)

-- ask Another compound to check: O=[N+]([O-])c1ccc2sc3ccccc3c2c1
-- reply 12.2% (inactive)

More entries:
-- ask Recorded growth inhibition of NC(CCC(=O)NC(CSc1ccc([N+](=O)[O-])cc1[N+](=O)[O-])C(=O)NCC(=O)O)C(=O)O (stereo unspecified) , please.
-- reply -4.75% (inactive)

-- ask Another compound to check: O=C(CP(=O)(O)O)c1cccs1
-- reply -10.3% (inactive)

-- ask Another compound to check: CN(C)c1ccc(NP(=O)(Nc2ccc(N(C)C)cc2)N(CCCl)CCCl)cc1
-- reply 2.1% (inactive)

-- ask Another compound to check: CCOC(=O)C1=C(C)/C(=C\c2[nH]c(C)c(C(=O)OCC)c2C)N=C1C
-- reply 13.7% (inactive)

-- ask Another compound to check: CCCC[C@H]1C(=O)O[C@H](C)[C@H](NC(=O)c2cccc(NC=O)c2O)C(=O)O[C@@H](C)[C@@H]1OC(=O)CC(C)C
-- reply 12.5% (inactive)
